The measurements presented in this section are drawn from patent US20230302150A1.

Target system: hTLR7 (Homo sapiens, UniProt Q9NYK1)
Construct: expressed in transfected cells; host or cells: HEK-Blue hTLR7 reporter cell line
Sequence (Q9NYK1 27-1049): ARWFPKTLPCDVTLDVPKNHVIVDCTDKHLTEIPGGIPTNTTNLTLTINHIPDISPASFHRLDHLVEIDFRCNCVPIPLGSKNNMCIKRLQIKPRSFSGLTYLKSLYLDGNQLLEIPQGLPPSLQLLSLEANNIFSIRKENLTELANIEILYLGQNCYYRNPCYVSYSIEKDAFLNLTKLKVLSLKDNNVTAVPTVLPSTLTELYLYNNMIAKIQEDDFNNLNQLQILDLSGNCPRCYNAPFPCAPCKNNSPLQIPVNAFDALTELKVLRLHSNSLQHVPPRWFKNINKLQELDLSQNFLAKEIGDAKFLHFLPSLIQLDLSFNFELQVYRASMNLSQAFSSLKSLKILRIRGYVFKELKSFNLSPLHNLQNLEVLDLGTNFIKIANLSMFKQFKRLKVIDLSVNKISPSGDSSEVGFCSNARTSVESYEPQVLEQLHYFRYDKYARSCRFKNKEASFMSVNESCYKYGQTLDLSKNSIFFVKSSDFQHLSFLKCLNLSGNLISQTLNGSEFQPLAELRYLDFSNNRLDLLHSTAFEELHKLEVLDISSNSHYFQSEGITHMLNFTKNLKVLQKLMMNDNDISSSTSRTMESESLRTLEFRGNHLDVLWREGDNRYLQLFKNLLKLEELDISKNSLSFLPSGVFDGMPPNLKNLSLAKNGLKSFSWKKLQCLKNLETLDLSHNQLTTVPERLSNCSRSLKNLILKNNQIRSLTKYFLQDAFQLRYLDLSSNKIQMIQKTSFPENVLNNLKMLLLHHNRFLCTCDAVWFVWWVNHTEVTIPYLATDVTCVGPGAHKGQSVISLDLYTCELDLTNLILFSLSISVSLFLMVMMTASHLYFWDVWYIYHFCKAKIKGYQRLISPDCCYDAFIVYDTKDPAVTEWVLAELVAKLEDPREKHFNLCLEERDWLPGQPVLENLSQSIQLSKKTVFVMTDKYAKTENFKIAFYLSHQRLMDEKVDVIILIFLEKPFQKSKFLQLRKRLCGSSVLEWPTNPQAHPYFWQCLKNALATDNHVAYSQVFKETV
Protocol notes: HEK-Blue hTLR7 reporter assay (NF-kB-induced SEAP, Quanti-Blue)
Assay type: cell-based
Measurement context: Table 19, TLR7, drug-linkers with PEG shielding; read-out: EC50
Metric: EC50 (µM)

// solved cases for EC50 follow
| Record smiles | Target system | Value observed |
| --- | --- | --- |
| CCCCOc1nc(NC(C)=O)c2[nH]c(=O)n(Cc3ccc(CN4CCC(CCNC(=O)CON)CC4)cc3)c2n1 | hTLR7 (Homo sapiens, UniProt Q9NYK1) | 0.0655 |
| CCCCOc1nc(N)c2[nH]c(=O)n(Cc3ccc(CN4CCC(CCNC(=O)[C@H](CCCCNC(=O)CON)NC(=O)CCCc5ccccc5)CC4)cc3)c2n1 | hTLR7 (Homo sapiens, UniProt Q9NYK1) | 0.387 |
| CCCCOc1nc(NC(C)=O)c2[nH]c(=O)n(Cc3ccc(CN4CCC(CCON)CC4)cc3)c2n1 | hTLR7 (Homo sapiens, UniProt Q9NYK1) | 0.0289 |
| CCCCOc1nc(NC(=O)CCOCCOCCOC)c2[nH]c(=O)n(Cc3ccc(CN4CCC(CCN)CC4)cc3)c2n1 | hTLR7 (Homo sapiens, UniProt Q9NYK1) | 0.0191 |
| CCCCOc1nc(N)c2[nH]c(=O)n(Cc3ccc(CN4CCC(CCNC(=O)[C@@H](N)Cc5ccc(Cn6cc(CON)nn6)cc5)CC4)cc3)c2n1 | hTLR7 (Homo sapiens, UniProt Q9NYK1) | 0.49 |
| CCCCOc1nc(N)c2[nH]c(=O)n(Cc3ccc(CN4CCC(CCNC(=O)[C@H](CCCCNC(=O)CON)NC(=O)CCCC(=O)NCCOCCOCCOCCOCCC(=O)NC(COCCC(=O)NCCOCCOCCOCCOCCOCCOCCOCCOCCOCCOCCOCCOC)(COCCC(=O)NCCOCCOCCOCCOCCOCCOCCOCCOCCOCCOCCOCCOC)COCCC(=O)NCCOCCOCCOCCOCCOCCOCCOCCOCCOCCOCCOCCOC)CC4)cc3)c2n1 | hTLR7 (Homo sapiens, UniProt Q9NYK1) | 1.41 |
| CCCCOc1nc(N)c2[nH]c(=O)n(Cc3ccc(CN4CCC(CCNC(=O)[C@@H](N)CCCCn5cc(CON)nn5)CC4)cc3)c2n1 | hTLR7 (Homo sapiens, UniProt Q9NYK1) | 0.04 |
| CCCCOc1nc(N)c2[nH]c(=O)n(Cc3ccc(CNC(=O)CCOCCON)cc3)c2n1 | hTLR7 (Homo sapiens, UniProt Q9NYK1) | 0.32 |

P. CCCCOc1nc(N)c2[nH]c(=O)n(Cc3ccc(CN4CCC(CCNC(=O)[C@@H](CCCCN)NC(=O)CON)CC4)cc3)c2n1
Q. CCCCOc1nc(N)c2[nH]c(=O)n(Cc3ccc(CN4CCC(CCON)CC4)cc3)c2n1
Field: entry with larger EC50 (options P / Q ). State your choice using its label.
P
